# Test system: MDA-MB-468 breast
# EXPERIMENT NOTES: NCI-60 one-dose screen, 48 h
# CONDITION PARAMETERS: 10 µM unless noted
Compounds without any hit were thinned out: in the full panel of roughly 83,000, 20% have a hit. Activity calls are given as the source filed them. The calls were made as follows: active = growth percent below 10; inactive = the rest.
Labels: active, inactive

SMILES	ASSIGNED LABEL
CC1=C(C/C=C(\C)CCC[C@H](C)CCC[C@H](C)CCCC(C)C)C(=O)c2ccccc2C1=O	inactive
COc1cc(OC)c(S(N)(=O)=O)cc1C(=O)/C=C/c1ccccc1	active
CC(C)c1cc(N=O)cc(C(C)C)c1O	inactive
Cc1cc2c(-c3nc4ccccn4c3NC34CC5CC(CC(C5)C3)C4)c(O)c(O)cc2c(O)c1-c1c(C)cc2c(-c3nc4ccccn4c3NC34CC5CC(CC(C5)C3)C4)c(O)c(O)cc2c1O	active
